Can you tell me z-score for the items I'm about to list?
- protocolDescription: HepG2 liver cancer cell viability effects, profiling panel, resazurin fluorescence, 24 h, PK04 Diversity Set (AID 1172); also: test concentration not given here
- conditionDescription: higher = more signal

INPUT: Query z-score for C=CCC(OC(C)=O)[C@@H]1[C@@H](N(Cc2cc3ccccc3o2)C(=O)c2ccc(-c3ccccc3)cc2)c2cc(OCCCO)ccc2N1C(=O)c1ccc(-c2ccccc2)cc1 (some centres undefined)
OUTPUT: 0.634

INPUT: Supply measured z-score of `NCCCCCNC(=O)[C@H]1C[C@H]2C(=O)NCC(=O)N2[C@H]1c1ccc(O)cc1` in your reply.
OUTPUT: -1.2

INPUT: Respond only with z-score recorded for `COc1ccc(C(=O)Nc2cccc(CN3C(=O)[C@@]4(O[C@@H](CCO)[C@H]([Si](C)(C)c5ccc(OC)cc5)[C@H]4C)c4ccccc43)c2)cc1`
OUTPUT: -6.42

INPUT: Given the molecule `C=CC[C@]1(C(=O)N(C)C)N=C(c2ccc(OCCCO)cc2)O[C@H]1c1ccccc1CN=[N+]=[N-]` , write its reported z-score.
OUTPUT: 0.481
